# Test system: NCI-H226 lung
# assay_info: NCI tumour cell line growth inhibition, 48 h; in the data active = GI50 below about 0.43 µM; inactive = the rest
Outcomes: Yes (active), No (inactive)

[
  {
    "molecule": "O=C(CSC(c1ccccc1)c1ccccc1)N/N=C/c1ccccc1Cl",
    "label_value": "No"
  },
  {
    "molecule": "Cc1c(Cl)cccc1NC(=O)c1sc2nc3c(cc2c1N)C(=O)CCC3",
    "label_value": "Yes"
  },
  {
    "molecule": "Oc1ccc(Cl)cc1Sc1cc(Cl)ccc1O",
    "label_value": "No"
  },
  {
    "molecule": "COc1cccc(N2CCN(c3ncnc4cc[nH]c34)CC2)c1",
    "label_value": "No"
  },
  {
    "molecule": "CC(=O)O[C@@H]1C2=C(C)C3(CC3)[C@@](C)(O)C(=O)C2=C[C@@]1(C)CO",
    "label_value": "No"
  },
  {
    "molecule": "CCCCSc1nc(N)c2cn[nH]c2n1",
    "label_value": "No"
  },
  {
    "molecule": "CC(C)(O)CCc1cccc(C(=O)c2cnn(-c3ccc(F)cc3)c2N)c1",
    "label_value": "No"
  },
  {
    "molecule": "[Cl][Hg][c]1ccc2ccccc2c1",
    "label_value": "No"
  },
  {
    "molecule": "O=C1C(Cl)=C(Nc2cc(Cl)ccc2O)C(=O)N1Cc1ccccc1",
    "label_value": "No"
  },
  {
    "molecule": "CNCC(=O)NC(CO)C(=O)NC(CO)C(=O)NC1C(C(N)=O)OC(n2ccc(N)nc2=O)C(O)C1O (stereo unspecified)",
    "label_value": "No"
  },
  {
    "molecule": "C[C@@]1(C(=O)O)CCC[C@]2(C)C1CC[C@]13C[C@@](O)(CO)[C@](O)(CC[C@]12O)C3 (stereo partly specified)",
    "label_value": "No"
  }
]

====

# Tested on: SNB-75 CNS
# assay_info: NCI tumour cell line growth inhibition, 48 h; in the data active = GI50 below about 0.43 µM; inactive = the rest
Outcomes: active, inactive

[
  {
    "compound": "Cc1cc2c3c([n+](C)c4ccc(F)cc4c3c1)-c1cc(F)ccc1N2C",
    "label_value": "inactive"
  },
  {
    "compound": "O=c1cc(-c2ccccc2)oc2cc(OCCCCCN3CCOCC3)cc(O)c12",
    "label_value": "inactive"
  },
  {
    "compound": "Cn1cc(C2=C(c3cc[nH]c3)C(=O)NC2=O)c2ccccc21",
    "label_value": "inactive"
  },
  {
    "compound": "CC(C)(C)C(=O)c1c(C(F)(F)F)n([O-])c2cc(Cl)c(Cl)cc2[n+]1=O",
    "label_value": "active"
  },
  {
    "compound": "CCN(CC)S(=O)(=O)c1cccc(-c2ccc3c(NC(=O)C4CC4)n[nH]c3c2)c1",
    "label_value": "inactive"
  },
  {
    "compound": "COc1ccc(/C=C2\\COc3ccc(O)c(O)c3C2=O)cc1OC",
    "label_value": "inactive"
  },
  {
    "compound": "C[C@@H](CS[As](C)C)C(=O)N1CCC[C@H]1C(=O)O",
    "label_value": "inactive"
  },
  {
    "compound": "COc1cc(C2c3cc4c(cc3[C@@H](Nc3ccc([N+](=O)[O-])cc3)C3COC(=O)[C@H]23)OCO4)cc(OC)c1O (stereo not given in full)",
    "label_value": "active"
  },
  {
    "compound": "OC(CN1CCCC2CCCCC21)c1cc2ccccc2c2ccccc12 (stereo not given)",
    "label_value": "inactive"
  },
  {
    "compound": "CN(C)c1cc2c(Nc3ccc4c(cnn4Cc4ccccc4)c3)ncnc2cn1",
    "label_value": "inactive"
  }
]
